Protocol: chemical genetic growth profiling, strain panel (AID 1159580);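 also: tested at 20 µM; growth read once vehicle control cultures reached saturation at 30 °C; 1 = growth at the plate median or of vehicle wells; lower values mean less growth of the strain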
Condition Label: S. cerevisiae deletion strains, growth OD, locus YKL048C, strain ELM1
Among all 5,500 compounds or so, about 2,000 (36%) were called active. Not shown: some 18% with an inconclusive outcome. Rule as the data show it: active = normalized growth mostly below about 0.91 (no sharp cut-off); inconclusive = no clear call, values can overlap the other calls; inactive = mostly above about 0.92. Some of the results follow.
Outcomes: active, inactive

INSERT INTO assay_data (compound, class) VALUES
  ('O=C(Nc1ccc(F)c(Cl)c1)c1ccccc1O', 'inactive'),
  ('Cc1nn(Cc2nnc(SCc3cccc(C(F)(F)F)c3)o2)c(C)c1Br', 'inactive'),
  ('CNC(=O)n1nc(C)c(Cc2csc3ccc(Cl)cc23)c1C', 'inactive'),
  ('O=C(Nc1cccc2ccccc12)c1ccccc1O', 'active'),
  ('COc1ccc(CC2CCC(=NOC(=O)c3ccc(C(C)(C)C)cc3)CC2)cc1 (stereo unspecified)', 'inactive'),
  ('CC1C/C(=N/Nc2ccc(Br)cc2)c2cc(Cl)ccc2S1 (stereo unspecified)', 'active'),
  ('O=C(CCn1c(=O)oc2ccccc21)Sc1ccc(C(F)(F)F)cc1', 'inactive'),
  ('O=S(=O)(Nc1ccc(Oc2ccc(OC(F)(F)F)cc2)cc1)c1cccc(Cl)c1', 'inactive'),
  ('O=[N+]([O-])c1ccc(-c2csc(Nc3ccncc3)n2)cc1', 'inactive'),
  ('COc1ccc(OC)c(-c2ccn[nH]2)c1OCc1ccccc1', 'inactive'),
  ('O=C1/C(=C/c2cccs2)COc2ccccc21', 'inactive'),
  ('CSC(=NNc1ccccc1)NC(=O)c1c(Cl)cccc1Cl', 'inactive'),
  ('COc1cc(CC/C(C)=N/O)ccc1OCc1ccc(Cl)cc1Cl', 'inactive'),
  ('Cc1onc(-c2ccccc2)c1C(=O)Sc1ccc(C(F)(F)F)cn1', 'inactive'),
  ('O=C1/C(=C/c2ccc(C(F)(F)F)cc2)COc2ccccc21', 'inactive'),
  ('CS(=O)(=O)c1sc(C(=O)Sc2ccc(Cl)cc2)c2c1C=CCC2', 'active'),
  ('O=C(CCn1c(=O)oc2ccccc21)Sc1ccc(Cl)cc1Cl', 'active'),
  ('Cc1c(S(=O)(=O)c2ccc(Cl)cc2)csc1C(=O)NNc1cccc(Cl)c1', 'inactive'),
  ('S=C(Nc1cc(Cl)c(Cl)cc1Cl)Nc1ccccc1Br', 'inactive'),
  ('O=C(NNc1ccc(Cl)cc1)c1ccc(F)cc1F', 'active'),
  ('COc1ccc(CC2CCC(=NOC(=O)c3c(Cl)cccc3Cl)CC2)cc1 (stereo unspecified)', 'inactive');

----------
The compounds listed here are annotated with their normalized growth.
Protocol: chemical genetic growth profiling, strain panel (AID 1159580);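 also: tested at 20 µM; growth read once vehicle control cultures reached saturation at 30 °C; 1 = growth at the plate median or of vehicle wells; lower values mean less growth of the strain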
Condition Label: S. cerevisiae deletion strains, growth OD, locus YJL129C, strain trk1, hits give low values
Among all 5,500 compounds or so, about 2,000 (36%) were called active. Another 18% or so got no clear call; they are omitted. The list shows a part of the results.
Reported Property: normalized growth

INSERT INTO results (compound, recorded_number) VALUES
  ('CCN(CCCc1ccccc1)CCCc1ccccc1', 0.956),
  ('NC(Cc1ccc(F)cc1)C(=O)O (centres undefined)', 1.01),
  ('CC(=O)N=c1sc(S(N)(=O)=O)nn1C', 1),
  ('CC(=O)Nc1nnc(S(N)(=O)=O)s1', 1.02),
  ('O=C(Nc1ccccc1)Nc1ccccc1', 0.998),
  ('Nc1ccn(C2O[C@H](CO)[C@@H](O)[C@H]2O)c(=O)n1 (some centres undefined)', 0.995),
  ('CSc1ccc2c(c1)N(CCC1CCCCN1C)c1ccccc1S2 (centres undefined)', 1.07),
  ('COc1cc(S(C)=O)ccc1-c1nc2ncccc2[nH]1 (centres undefined)', 0.966),
  ('Cc1ncc([N+](=O)[O-])n1CC(C)O (centres undefined)', 0.966),
  ('NNCCc1ccccc1', 1.01),
  ('CN[C@@H]1[C@H](OC2[C@H](O[C@H]3[C@H](O)[C@@H](O)[C@H](N=C(N)N)[C@@H](O)[C@@H]3N=C(N)N)O[C@@H](C)[C@]2(O)C=O)O[C@@H](CO)[C@H](O)[C@H]1O (some centres undefined)', 1.02),
  ('CN(C(=O)CN(CCO)CC(=O)N(C)C(C)(C)Cc1ccccc1)C(C)(C)Cc1ccccc1', 1.02),
  ('Nc1cc(-c2ccncc2)c[nH]c1=O', 0.94),
  ('CC(=O)OCC(=O)[C@@]1(O)[C@H](OC(C)=O)CC2C3CCC4=CC(=O)C=C[C@]4(C)[C@@]3(F)[C@@H](O)C[C@@]21C (some centres undefined)', 0.988),
  ('N[C@H](Cc1ccccc1)C(=O)O', 1),
  ('c1ccc2nc(N3CCNCC3)ccc2c1', 0.947),
  ('O=C(O)c1ccccc1C(=O)Nc1ccc(S(=O)(=O)Nc2nccs2)cc1', 0.976),
  ('NC(=O)c1ncn(C2O[C@H](CO)[C@@H](O)[C@H]2O)c1N (some centres undefined)', 1.04),
  ('CO[C@]12C[C@@H](COC(=O)c3cncc(Br)c3)CN(C)[C@@H]1Cc1cn(C)c3cccc2c13', 0.982),
  ('Clc1ccc2c(c1)C(N1CCNCC1)=Nc1ccccc1O2', 1.06),
  ('O=C(O)CCC(=O)Nc1ccc(S(=O)(=O)Nc2nccs2)cc1', 0.994),
  ('CC(=O)Nc1ccccc1', 0.981),
  ('C/C=C/C(=O)N(CC)c1ccccc1C', 1.03),
  ('COc1cc(OC)c(OC)cc1C=O', 1);
